protocol details: protein stability index of a GFP-peptide fusion (yeast GPS) (PSI 1-4); higher = more stable; sorted into four equal gates, so the index is relative within each strain
condition description: ubr1∆
metric name: protein stability index

What value of measured protein stability index is listed for STSNTPSPPNVIITDGT [YDL088C/ASM4] ?
2.96

====

protocol details: protein stability index of a GFP-peptide fusion (yeast GPS) (PSI 1-4); higher = more stable; sorted into four equal gates, so the index is relative within each strain
condition description: san1∆
metric name: protein stability index

Check out these entries, answers already filled in.
monomer sequence	protein stability index
TEELQTQYATSQKTKTI [SMC2]	3.11
RLTAKRLIEHDPVEGNL [SRP14]	1.93
VVKASELDQFWQEYSSV [SRP14]	3.14

What value of measured protein stability index is listed for KDAQKKDIEKLTNEISD [YIL149C/MLP2] ?
2.65

What value of measured protein stability index is listed for KVLCLAVAVGNVEMEED [RPL1A] ?
1.33

What value of measured protein stability index is listed for LSPSDQFAPAFLNTPNN [SSN2] ?
2.06

What value of measured protein stability index is listed for QAQQAQQAQARLQQGRR [SNF2] ?
2.88

====

protocol details: protein stability index of a GFP-peptide fusion (yeast GPS) (PSI 1-4); higher = more stable; sorted into four equal gates, so the index is relative within each strain
condition description: ubr1∆
Think of 2 as a floor: if protein stability index stands on it or above, it is yes; beneath it, no.

Look over these answered cases.
monomer sequence	group
NNRMGSYDCTGVNELAP [POP1]	yes
QYVTQIEQEKQEQQEQD [PRE6]	no
KKRSHHGKASRQQYYSG [SNF6]	yes

Assess whether reported protein stability index for IYATFLNESDCLEACSF [YDL116W/NUP84] sits at 2 or higher.
yes

Assess whether reported protein stability index for TITNSSSSSDIIVPDLI [YML103C/NUP188] sits at 2 or higher.
yes

Assess whether reported protein stability index for ANLLPARQFGYVILTTS [RPS22A] sits at 2 or higher.
no

====

Documented protein stability index across a set of sequences
protocol details: protein stability index of a GFP-peptide fusion (yeast GPS) (PSI 1-4); higher = more stable; sorted into four equal gates, so the index is relative within each strain
condition description: san1∆
Output: the number by itself.

What value of measured protein stability index is listed for AENSHTQPKATSTGTTI [PUP1] ?
3.07

What value of measured protein stability index is listed for MIQKVMEYLKSSKSLDL [RPN5] ?
2.3

What value of measured protein stability index is listed for HLIFSNARIYNTEGSVV [SNF2] ?
2.49

What value of measured protein stability index is listed for MLLGTDLCSLKPYVDRF [DIS3] ?
2.66

What value of measured protein stability index is listed for MPQSGTGVSVEAVDDVF [RPN11] ?
3

What value of measured protein stability index is listed for KGALMYGPPGTGKTLLA [RPT5] ?
2.3

What value of measured protein stability index is listed for SASLKKIQQHNTILNSS [BRR2] ?
2.79

What value of measured protein stability index is listed for LKYHDFLRKATAFNKTR [RPL16B] ?
2.77

====

protocol details: protein stability index of a GFP-peptide fusion (yeast GPS) (PSI 1-4); higher = more stable; sorted into four equal gates, so the index is relative within each strain
condition description: doa10∆
Think of 3 as a floor: if protein stability index stands on it or above, it is true (1); beneath it, false (0).

monomer sequence	group
SKTHKTVSRAYGGSRCA [RPL34A]	false (0)
FDDSDITKFALFAESHD [YML103C/NUP188]	false (0)
FKKDFEVNISSLDAREA [RPC40]	false (0)
QLELRQLNASISLIPEL [RRI2]	false (0)
FTNPSIVKVFHGAFMDI [RRP6]	false (0)

Assess whether reported protein stability index for RITNSFYSTNSQYFKFK [RPN9] sits at 3 or higher.
false (0)

Assess whether reported protein stability index for NVESVGSIPVDQVVVRG [RPB3] sits at 3 or higher.
false (0)

Assess whether reported protein stability index for FSQKANKTKAVDNTVPS [YOR098C/NUP1] sits at 3 or higher.
false (0)

Assess whether reported protein stability index for LWDQDIAIAGTGQIEGL [COR1] sits at 3 or higher.
true (1)

Assess whether reported protein stability index for SLFQLSKLGKNLQTVHF [GRR1] sits at 3 or higher.
false (0)

Assess whether reported protein stability index for LSTRELAGKVGSIRVHK [RPC53] sits at 3 or higher.
false (0)

Assess whether reported protein stability index for IVNNDLPTTVVSNPGDN [MED2] sits at 3 or higher.
false (0)
